measured.target: G-protein coupled receptor 55 (Homo sapiens)
assay.notes: GPR55 antagonists blocking LPI-driven arrestin recruitment, primary screen, imaging, U2OS, beta-arrestin-GFP, LPI agonist (AID 2013);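 note: U2OS cells stably carrying GPR55 and arrestin-GFP stimulated by 5 µM LPI near EC80; imaged beta-arrestin-GFP aggregate spots per cell after agonist stimulation; plate controls were LPI-stimulated DMSO wells for no effect and DMSO wells without LPI for full effect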
protocol.conditions: U2OS GPR55 beta-arrestin-GFP translocation imaging, LPI antagonism; at 10 µM; active compounds read high
About 370 (0.13%) of roughly 290,000 compounds were called active. Many of the other results were omitted from the sample, so actives are more common in it than they were. Entries with a potency or affinity are not part of this list.
Decision: inhibition compared against 10%; not below it gives t, below it gives f.

Here are 5 compounds together with their reported answers.
>  <compound>
COc1ccc(C2CC(c3ccc(F)cc3)=NN2c2ccccc2)cc1OC (configuration not stated)

>  <qualitative.label>
f

$$$$
>  <compound>
CCCNC(=O)C(Sc1ccccc1)c1ccccc1 (configuration not stated)

>  <qualitative.label>
f

$$$$
>  <compound>
O=C(O)CC/C(=N\NC(=O)CNC(=O)/C=C/c1ccccc1)c1ccccc1

>  <qualitative.label>
f

$$$$
>  <compound>
O=C(COC(=O)C1CC2C=CC1C2)Nc1cccc(S(=O)(=O)N2CCOCC2)c1 (configuration not stated)

>  <qualitative.label>
f

$$$$
>  <compound>
O=C(Nc1ccccc1Cl)c1cc[n+]([O-])cc1

>  <qualitative.label>
t

$$$$

Exam item: decide whether the reported inhibition for `O=C(Nc1ccccc1)c1ccccc1Oc1ccc(C(F)(F)F)cc1[N+](=O)[O-]` is at least 10%. f

Exam item: decide whether the reported inhibition for `Cc1ccc(N/N=C(\C#N)C(=N)N2CCCCC2)cc1` is at least 10%. f

Exam item: decide whether the reported inhibition for `O=C(Nc1ccc(F)cc1)c1ccccc1Oc1ccc(C(F)(F)F)cc1[N+](=O)[O-]` is at least 10%. t

Exam item: decide whether the reported inhibition for C=CCN(C(=O)CNC(=O)c1ccco1)C(C(=O)NC1CCCCC1)c1ccccc1 (configuration not stated) is at least 10%. f

Exam item: decide whether the reported inhibition for `CCCNC(=O)c1nnsc1S(=O)(=O)c1ccc(Cl)cc1` is at least 10%. t

Exam item: decide whether the reported inhibition for `O=C(CN1C(=O)S/C(=C\c2ccc(Cl)cc2)C1=O)NCCCn1ccnc1` is at least 10%. f

Exam item: decide whether the reported inhibition for `Cc1ccc(N/N=C(\C#N)C(=N)N2CCOCC2)cc1` is at least 10%. t

Exam item: decide whether the reported inhibition for CCC(C)NC(=O)C(Sc1ccccc1)c1ccccc1 (configuration not stated) is at least 10%. f

Exam item: decide whether the reported inhibition for `CN(C)c1ccc(C2(c3ccc(N(C)C)cc3)OC(=O)c3cc(N)ccc32)cc1` is at least 10%. f

----------
Entries annotated with measured inhibition
measured.target: G-protein coupled receptor 55 (Homo sapiens) (UniProt Q9Y2T6)
Sequence (Q9Y2T6 whole entry, looked up): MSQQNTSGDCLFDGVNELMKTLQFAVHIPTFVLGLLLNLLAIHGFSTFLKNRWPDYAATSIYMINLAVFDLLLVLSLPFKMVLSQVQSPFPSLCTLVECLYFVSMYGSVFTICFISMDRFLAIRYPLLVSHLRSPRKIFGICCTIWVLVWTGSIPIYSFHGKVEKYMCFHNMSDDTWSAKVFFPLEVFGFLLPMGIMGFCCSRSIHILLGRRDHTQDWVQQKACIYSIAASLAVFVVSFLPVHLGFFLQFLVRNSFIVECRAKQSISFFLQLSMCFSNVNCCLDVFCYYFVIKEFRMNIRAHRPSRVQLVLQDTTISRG
assay.notes: GPR55 antagonists blocking LPI-driven arrestin recruitment, primary screen, imaging, U2OS, beta-arrestin-GFP, LPI agonist (AID 2013)
protocol.conditions: U2OS GPR55 beta-arrestin-GFP translocation imaging, LPI antagonism; at 10 µM; active compounds read high
About 370 (0.13%) of roughly 290,000 compounds were called active. Many of the other results were omitted from the sample, so actives are more common in it than they were. Potency and affinity values are given separately.
Respond with the bare value in %.

>  <compound>
O=C(N/C=C/c1ccc(Cl)cc1)NCc1ccc(Cl)cc1

>  <result.value>
9

$$$$

# returns recorded inhibition (system: G-protein coupled receptor 55 (Homo sapiens) (UniProt Q9Y2T6)) for `COc1ccc(/C=N/NC(=O)c2cc(C34CC5CC(CC(C5)C3)C4)[nH]n2)cc1O` 49.4

# returns recorded inhibition (system: G-protein coupled receptor 55 (Homo sapiens) (UniProt Q9Y2T6)) for `CCOC(=O)c1c(NC(=O)c2ccc(Cl)s2)sc(C)c1C` 1.6

# returns recorded inhibition (system: G-protein coupled receptor 55 (Homo sapiens) (UniProt Q9Y2T6)) for CCN1CCCC1CN(Cc1cc2ccc(C)cc2[nH]c1=O)C(=S)Nc1ccc(F)cc1 (stereo not drawn) 23.5

----------
measured.target: G-protein coupled receptor 55 (Homo sapiens) (UniProt Q9Y2T6)
assay.notes: GPR55 antagonists blocking LPI-driven arrestin recruitment, primary screen, imaging, U2OS, beta-arrestin-GFP, LPI agonist (AID 2013);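 note: U2OS cells stably carrying GPR55 and arrestin-GFP stimulated by 5 µM LPI near EC80; imaged beta-arrestin-GFP aggregate spots per cell after agonist stimulation; plate controls were LPI-stimulated DMSO wells for no effect and DMSO wells without LPI for full effect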
protocol.conditions: U2OS GPR55 beta-arrestin-GFP translocation imaging, LPI antagonism; at 10 µM; active compounds read high
In all, about 290,000 compounds went through this assay and about 370 (0.13%) were called active. The full list was thinned out, with actives kept by preference. Entries with a potency or affinity are not part of this list.
measured.endpoint: inhibition (%)
Respond with the bare value in %.

Please review the entries below; each comes with its answer.
>  <molecule>
O=C(CSC1=NCCS1)Nc1cccc(F)c1

>  <readout.unit>
%

>  <inhibition>
-2.2

$$$$
>  <molecule>
CN1CCN(CC(O)Cn2c3ccccc3c3ccccc32)CC1 (stereo unspecified)

>  <readout.unit>
%

>  <inhibition>
-3.3

$$$$
>  <molecule>
OC(CN1CCN(Cc2ccccc2)CC1)Cn1c2ccccc2c2ccccc21 (stereo unspecified)

>  <readout.unit>
%

>  <inhibition>
36.2

$$$$
>  <molecule>
COc1ccc(OC)c(/C=C/C(=O)Nc2cccc(S(=O)(=O)N3CCCC3)c2)c1

>  <readout.unit>
%

>  <inhibition>
-3.3

$$$$
>  <molecule>
Cc1nonc1NC(=O)CSc1nnc(N)s1

>  <readout.unit>
%

>  <inhibition>
-5.8

$$$$

Can you look up the measured inhibition of `Cc1ccc(-c2cc(C(=O)Nc3ccc(S(=O)(=O)Nc4onc(C)c4C)cc3)c3ccccc3n2)cc1` for me? -14.3

Can you look up the measured inhibition of CN(c1ccccc1)S(=O)(=O)c1ccc(NC(=O)C2CCCCC2C(=O)O)cc1 (stereo unspecified) for me? 45.5

Can you look up the measured inhibition of `Cc1ccc(-c2csc3ncnc(Oc4cccc5ccc(C)nc45)c23)cc1` for me? 3.8

Can you look up the measured inhibition of `CC(C)N(C=O)C1(C(=O)NC2CCCCC2)CCCCC1` for me? 5.3

Can you look up the measured inhibition of `O=C1c2ccccc2C(=O)N1Cc1cc(-c2ccccc2)no1` for me? -7.7

Can you look up the measured inhibition of Cc1ccc(OCC(O)Cn2c3ccccc3c3ccccc32)cc1 (stereo unspecified) for me? 6.3

Can you look up the measured inhibition of `CC(C)(C)c1ccc(O)c(N=Cc2cc3c(cc2[N+](=O)[O-])OCO3)c1` for me? -3.2

Can you look up the measured inhibition of `O=C(CO/N=C1\CCCc2nonc21)Nc1ccccc1Cl` for me? 0.5

Can you look up the measured inhibition of `Cc1ccc2cccc(Oc3ncnc4scc(-c5ccccc5)c34)c2n1` for me? 77.9

Can you look up the measured inhibition of `Cc1c(C(=O)NCc2ccc3c(c2)OCO3)sc2nc(-c3ccc(F)cc3)cn12` for me? 11.5

----------
measured.target: G-protein coupled receptor 55 (Homo sapiens) (UniProt Q9Y2T6)
assay.notes: GPR55 antagonists blocking LPI-driven arrestin recruitment, primary screen, imaging, U2OS, beta-arrestin-GFP, LPI agonist (AID 2013);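 note: U2OS cells stably carrying GPR55 and arrestin-GFP stimulated by 5 µM LPI near EC80; imaged beta-arrestin-GFP aggregate spots per cell after agonist stimulation; plate controls were LPI-stimulated DMSO wells for no effect and DMSO wells without LPI for full effect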
protocol.conditions: U2OS GPR55 beta-arrestin-GFP translocation imaging, LPI antagonism; at 10 µM; active compounds read high
About 370 (0.13%) of roughly 290,000 compounds were called active. Only a selection was taken, and actives are over-represented in it overall. Entries with a potency or affinity are not part of this list.
Entries annotated with measured inhibition
Respond with the bare value in %.

Please review the entries below; each comes with its answer.
>  <compound>
CCc1nonc1NC(=O)c1oc2ccccc2c1C

>  <measured.target>
G-protein coupled receptor 55 (Homo sapiens) (UniProt Q9Y2T6)

>  <inhibition (%)>
10

$$$$
>  <compound>
CC(C)(C)c1csc(NC(=O)CSc2nc3ccccc3c(=O)[nH]2)n1

>  <measured.target>
G-protein coupled receptor 55 (Homo sapiens) (UniProt Q9Y2T6)

>  <inhibition (%)>
-12.6

$$$$
>  <compound>
CCOC(=O)c1ccc(NC(=O)c2ccc3c(c2)C(=O)N(Cc2cccnc2)C3=O)cc1

>  <measured.target>
G-protein coupled receptor 55 (Homo sapiens) (UniProt Q9Y2T6)

>  <inhibition (%)>
-16.9

$$$$
>  <compound>
Cc1ccc(S(C)(=O)=NS(=O)(=O)c2cccc3nsnc23)cc1 (stereo not drawn)

>  <measured.target>
G-protein coupled receptor 55 (Homo sapiens) (UniProt Q9Y2T6)

>  <inhibition (%)>
5

$$$$

Can you look up the measured inhibition of `COc1ccc(-c2n[nH]c(C)c2-c2ccc(Cl)cc2)c(O)c1` for me? 12.3

----------
measured.target: G-protein coupled receptor 55 (Homo sapiens) (UniProt Q9Y2T6)
assay.notes: GPR55 antagonists blocking LPI-driven arrestin recruitment, primary screen, imaging, U2OS, beta-arrestin-GFP, LPI agonist (AID 2013);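 note: U2OS cells stably carrying GPR55 and arrestin-GFP stimulated by 5 µM LPI near EC80; imaged beta-arrestin-GFP aggregate spots per cell after agonist stimulation; plate controls were LPI-stimulated DMSO wells for no effect and DMSO wells without LPI for full effect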
protocol.conditions: U2OS GPR55 beta-arrestin-GFP translocation imaging, LPI antagonism; at 10 µM; active compounds read high
In all, about 290,000 compounds went through this assay and about 370 (0.13%) were called active. The list comes from a sample in which actives are over-represented; it also holds close analogues and randomly drawn compounds. Potency and affinity values are given separately.
measured.endpoint: inhibition (%)
Respond with the bare value in %.

>  <smiles.data>
CCOc1ccc(-n2nc3c(=O)[nH]nc(C)c3c2C)cc1

>  <measured.target>
G-protein coupled receptor 55 (Homo sapiens) (UniProt Q9Y2T6)

>  <result.value>
7.8

$$$$
>  <smiles.data>
COc1ccc(S(=O)(=O)N2CCCCCC2)cc1N(C)S(=O)(=O)c1ccc(Cl)cc1

>  <measured.target>
G-protein coupled receptor 55 (Homo sapiens) (UniProt Q9Y2T6)

>  <result.value>
18.7

$$$$

Can you look up the measured inhibition of `Cc1ccc(-c2csc(N(CCCN3CCOCC3)C(=O)c3ccco3)n2)cc1` for me? 21.7
